TESTED ON: 5-HT1A (Rattus norvegicus, UniProt P19327)
Construct: from tissue; host or cells: rat frontal cortex
Sequence (P19327 whole entry): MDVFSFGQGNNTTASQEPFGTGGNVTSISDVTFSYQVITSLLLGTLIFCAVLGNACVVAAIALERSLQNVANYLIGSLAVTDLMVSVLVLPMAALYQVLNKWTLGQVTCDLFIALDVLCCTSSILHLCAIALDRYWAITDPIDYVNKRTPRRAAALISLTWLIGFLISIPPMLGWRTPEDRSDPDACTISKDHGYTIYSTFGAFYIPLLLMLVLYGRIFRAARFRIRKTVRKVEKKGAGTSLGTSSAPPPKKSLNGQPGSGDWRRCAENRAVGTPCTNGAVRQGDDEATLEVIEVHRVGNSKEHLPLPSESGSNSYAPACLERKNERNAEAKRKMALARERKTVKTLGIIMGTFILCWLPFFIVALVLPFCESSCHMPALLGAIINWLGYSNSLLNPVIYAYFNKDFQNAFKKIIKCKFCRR
PROTOCOL DETAILS: 5-HT1A receptor binding (Peroutka)
COND: rat frontal cortex (title of cited method); mean; read-out: IC50 5-HT1A mean
Structures can show the parent of a compound that is named as a salt.
REPORTED PROPERTY: IC50

• Cc1ccccc1N1CCN(C(=O)C(Oc2ccc3[nH]cc(CCN)c3c2)c2ccccc2)CC1 (stereo not shown) [Example 9, hydrochloride] = 325 nM
• Cc1cccc(N2CCN(C(=O)COc3ccc4[nH]cc(CCN)c4c3)CC2)c1C [Example 5, hydrochloride] = 240 nM
• COc1cccc(N2CCN(C(=O)COc3ccc4[nH]cc(CCNC(=O)OC(C)(C)C)c4c3)CC2)c1 [Example 6A, hydrochloride] = 100 nM
• CSc1ccc2c(c1)C(N1CCN(C(=O)COc3ccc4[nH]cc(CCNC(=O)OC(C)(C)C)c4c3)CC1)Cc1ccccc1S2 (stereo not shown) [Example 8, hydrochloride] = > 1000 nM
• NCCc1c[nH]c2ccc(OC(C(=O)N3CCN(c4cccc5ccccc45)CC3)c3ccccc3)cc12 (stereo not shown) [Example 10, hydrochloride] = 465 nM
• NCCc1c[nH]c2ccc(OCC(=O)N3CCN(c4cccc5ccccc45)CC3)cc12 [Example 4, hydrochloride] = 115 nM
• Cc1ccccc1N1CCN(C(=O)C(C)Oc2ccc3[nH]cc(CCN)c3c2)CC1 (stereo not shown) [Example 11, hydrochloride] = 125 nM
• Cc1cccc(N2CCN(C(=O)COc3ccc4[nH]cc(CCNC(=O)OC(C)(C)C)c4c3)CC2)c1C [Example 5A, hydrochloride] = 34.5 nM
• CN1CCN(C(=O)COc2ccc3[nH]cc(CCN)c3c2)CC1 [Example 7, hydrochloride] = > 1000 nM
• Cc1ccccc1N1CCN(C(=O)COc2ccc3[nH]cc(CCNC(=O)OC(C)(C)C)c3c2)CC1 [ID, hydrochloride] = 120 nM

---

TESTED ON: 5-HT1A (Rattus norvegicus, UniProt P19327)
Construct: from tissue; host or cells: rat frontal cortex
PROTOCOL DETAILS: 5-HT1A receptor binding (Peroutka)
Counter-ions that a name gives are not always drawn.
Overview of recorded IC50 for various compounds
REPORTED PROPERTY: IC50

• Cc1ccccc1N1CCN(C(=O)COc2ccc3[nH]cc(CCN)c3c2)CC1 [Example 1, hydrochloride] = 23.5 nM
• COc1cccc(N2CCN(C(=O)COc3ccc4[nH]cc(CCN)c4c3)CC2)c1 [Example 6, hydrochloride] = 23.5 nM
• NCCc1c[nH]c2ccc(OCC(=O)N3CCN(c4cccc(C(F)(F)F)c4)CC3)cc12 [Example 3, hydrochloride] = 33.5 nM

---

TESTED ON: α2-Adrenergic receptor (Rattus norvegicus, UniProt P22909)
Construct: in the rat brain; from tissue; host or cells: rat brain
Sequence (P22909 1-465): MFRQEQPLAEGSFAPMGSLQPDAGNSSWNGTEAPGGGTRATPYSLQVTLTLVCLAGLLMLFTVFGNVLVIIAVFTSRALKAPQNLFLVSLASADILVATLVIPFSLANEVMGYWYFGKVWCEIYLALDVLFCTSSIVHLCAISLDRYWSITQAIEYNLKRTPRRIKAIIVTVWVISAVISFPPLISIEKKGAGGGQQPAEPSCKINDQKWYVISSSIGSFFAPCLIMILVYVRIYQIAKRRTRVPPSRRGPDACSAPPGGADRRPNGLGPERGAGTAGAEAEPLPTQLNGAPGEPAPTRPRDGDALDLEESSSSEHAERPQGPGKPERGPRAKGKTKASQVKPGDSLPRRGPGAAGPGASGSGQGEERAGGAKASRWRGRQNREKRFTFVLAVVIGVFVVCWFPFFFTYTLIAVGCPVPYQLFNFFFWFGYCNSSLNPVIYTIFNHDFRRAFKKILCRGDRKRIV
PROTOCOL DETAILS: α2-Adrenergic receptor binding (Mallard et al.)
COND: rat brain (title of cited method); read-out: IC50 α2
pIC50: −log10 of the molar value. Where a name gives a salt, the structure may show the parent alone.
REPORTED PROPERTY: pIC50

* NCCc1c[nH]c2ccc(OCC(=O)N3CCN(c4cccc(C(F)(F)F)c4)CC3)cc12 [Example 3, hydrochloride] | < 6.00
* Cc1ccccc1N1CCN(C(=O)C(Oc2ccc3[nH]cc(CCN)c3c2)c2ccccc2)CC1 (stereo not drawn) [Example 9, hydrochloride] | < 6.00
* CN1CCN(C(=O)COc2ccc3[nH]cc(CCN)c3c2)CC1 [Example 7, hydrochloride] | < 6.00
* Cc1cccc(N2CCN(C(=O)COc3ccc4[nH]cc(CCNC(=O)OC(C)(C)C)c4c3)CC2)c1C [Example 5A, hydrochloride] | < 6.00
* Cc1ccccc1N1CCN(C(=O)COc2ccc3[nH]cc(CCNC(=O)OC(C)(C)C)c3c2)CC1 [ID, hydrochloride] | 5.15
* Cc1cccc(N2CCN(C(=O)COc3ccc4[nH]cc(CCN)c4c3)CC2)c1C [Example 5, hydrochloride] | < 6.00
